The reported measurements were obtained from patent US4894458A.

- System: C. perfringens KYA 13123
- Assay details: microbe, parasite or virus in culture
- Type: cell-based
- Measurement conditions: Clostridium perfringens, KYA13123
Listed here: items and their measured MIC.
Quantity measured: MIC

Cc1c(N2C[C@@H](C)[C@@H](N)C2)c(F)cc2c(=O)c(C(=O)O)cn(C3CC3)c12 (relative stereo) | 0.1 µg/mL
Cc1c(N2CCC(N)C2)c(F)cc2c(=O)c(C(=O)O)cn(C3CC3)c12 (centres unmarked) | 0.05 µg/mL
CCn1cc(C(=O)O)c(=O)c2cc(F)c(N3CCC(N)C3)c(C)c21 (centres unmarked) | 0.78 µg/mL
Cc1c(N2C[C@@H](C)[C@H](N)C2)c(F)cc2c(=O)c(C(=O)O)cn(C3CC3)c12 (relative stereo) | 0.1 µg/mL
Cc1c(N2CCNCC2)c(F)cc2c(=O)c(C(=O)O)cn(C3CC3)c12 | 0.2 µg/mL

---

Listed here: items and their measured MIC.
- Test system: Veillonella parvula KYA 10790
- Assay details: In vitro antibacterial activity (anaerobic bacteria), MIC
- Format: cell-based
- Measurement conditions: KYA10790
Quantity measured: MIC

Cc1c(N2C[C@@H](C)[C@H](N)C2)c(F)cc2c(=O)c(C(=O)O)cn(C3CC3)c12 (relative stereo) | 0.1 µg/mL
Cc1c(N2CCNCC2)c(F)cc2c(=O)c(C(=O)O)cn(C3CC3)c12 | 0.39 µg/mL
Cc1c(N2C[C@@H](C)[C@@H](N)C2)c(F)cc2c(=O)c(C(=O)O)cn(C3CC3)c12 (relative stereo) | 0.1 µg/mL
CCn1cc(C(=O)O)c(=O)c2cc(F)c(N3CCC(N)C3)c(C)c21 (centres unmarked) | 0.39 µg/mL
O=C(O)c1cn(C2CC2)c2cc(N3CCNCC3)c(F)cc2c1=O [CPFX, ciprofloxacin, reference compound] | 0.2 µg/mL

---

Listed here: items and their measured MIC.
- Test system: Acinetobacter anitratus IID 876
- Assay details: In vitro antibacterial activity (aerobic bacteria), MIC
- Assay type: cell-based
- Measurement conditions: Acinetobacter calcoaceticus, IID876, Gram -, 10^6 cells/ml, read-out: MIC
Quantity measured: MIC (µg/mL)

Cc1c(N2CCC(N)C2)c(F)cc2c(=O)c(C(=O)O)cn(C3CC3)c12 (stereo not drawn) [Exp. 18] | 0.05
CCn1cc(C(=O)O)c(=O)c2cc(F)c(N3CCC(N)C3)c(C)c21 (stereo not drawn) [Exp. 25] | 0.78
Cc1c(N2C[C@@H](C)[C@H](N)C2)c(F)cc2c(=O)c(C(=O)O)cn(C3CC3)c12 (relative stereo) [Ex. 27] | 0.025
O=C(O)c1cn(C2CC2)c2cc(N3CCNCC3)c(F)cc2c1=O [CPFX, ciprofloxacin, reference compound] | 0.1
Cc1c(N2CCNCC2)c(F)cc2c(=O)c(C(=O)O)cn(C3CC3)c12 [Exp. 19] | 0.2
Cc1c(N2C[C@@H](C)[C@@H](N)C2)c(F)cc2c(=O)c(C(=O)O)cn(C3CC3)c12 (relative stereo) [Ex. 28] | 0.05

---

- System: Alcaligenes faecalis 0114002
- Assay details: In vitro antibacterial activity (aerobic bacteria), MIC
- Type: cell-based
- Measurement conditions: Alcaligenes faecalis, 0114002, aerobic; Gram -; 10^6 cells/ml
Quantity measured: MIC (µg/mL)

Cc1c(N2CCNCC2)c(F)cc2c(=O)c(C(=O)O)cn(C3CC3)c12 | 0.39
Cc1c(N2C[C@@H](C)[C@H](N)C2)c(F)cc2c(=O)c(C(=O)O)cn(C3CC3)c12 (relative stereo) | 0.1
O=C(O)c1cn(C2CC2)c2cc(N3CCNCC3)c(F)cc2c1=O [CPFX, ciprofloxacin, reference compound] | 0.2
CCn1cc(C(=O)O)c(=O)c2cc(F)c(N3CCC(N)C3)c(C)c21 (centres unmarked) | 0.78
Cc1c(N2C[C@@H](C)[C@@H](N)C2)c(F)cc2c(=O)c(C(=O)O)cn(C3CC3)c12 (relative stereo) | 0.1

---

- Test system: Bacillus subtilis PCI 219
- Assay details: In vitro antibacterial activity (aerobic bacteria), MIC
- Type: cell-based
- Measurement conditions: PCI219
Listed here: items and their measured MIC.
Quantity measured: MIC (µg/mL)

Cc1c(N2C[C@@H](C)[C@H](N)C2)c(F)cc2c(=O)c(C(=O)O)cn(C3CC3)c12 (relative stereo) | 0.0125
Cc1c(N2CCNCC2)c(F)cc2c(=O)c(C(=O)O)cn(C3CC3)c12 | 0.05
Cc1c(N2C[C@@H](C)[C@@H](N)C2)c(F)cc2c(=O)c(C(=O)O)cn(C3CC3)c12 (relative stereo) | 0.0125
CCn1cc(C(=O)O)c(=O)c2cc(F)c(N3CCC(N)C3)c(C)c21 (centres unmarked) | 0.1
O=C(O)c1cn(C2CC2)c2cc(N3CCNCC3)c(F)cc2c1=O [CPFX, ciprofloxacin, reference compound] | 0.05

---

- Test system: Escherichia coli NIHJ JC-2
- Assay details: In vitro antibacterial activity (aerobic bacteria), MIC
- Assay type: cell-based
- Measurement conditions: NIHJJC2, aerobic, Gram -, 10^6 cells/ml
Listed here: items and their measured MIC.
Quantity measured: MIC (ng/mL)

Cc1c(N2C[C@@H](C)[C@@H](N)C2)c(F)cc2c(=O)c(C(=O)O)cn(C3CC3)c12 (relative stereo) | 6.3
Cc1c(N2C[C@@H](C)[C@H](N)C2)c(F)cc2c(=O)c(C(=O)O)cn(C3CC3)c12 (relative stereo) | 6.3
CCn1cc(C(=O)O)c(=O)c2cc(F)c(N3CCC(N)C3)c(C)c21 (stereo not shown) | 12.5

---

Assay read-out MIC; system under study: Serratia marcescens IID 618.
Quantity measured: MIC (µg/mL)

CCn1cc(C(=O)O)c(=O)c2cc(F)c(N3CCC(N)C3)c(C)c21 (stereo not drawn) | 0.05
Cc1c(N2CCNCC2)c(F)cc2c(=O)c(C(=O)O)cn(C3CC3)c12 | 0.05
Cc1c(N2C[C@@H](C)[C@@H](N)C2)c(F)cc2c(=O)c(C(=O)O)cn(C3CC3)c12 (relative stereo) | 0.05
Cc1c(N2CCC(N)C2)c(F)cc2c(=O)c(C(=O)O)cn(C3CC3)c12 (stereo not drawn) | 0.05
O=C(O)c1cn(C2CC2)c2cc(N3CCNCC3)c(F)cc2c1=O [CPFX, ciprofloxacin, reference compound] | 0.05
Cc1c(N2C[C@@H](C)[C@H](N)C2)c(F)cc2c(=O)c(C(=O)O)cn(C3CC3)c12 (relative stereo) | 0.05

---

Listed here: items and their measured MIC.
- Tested on: B. fragilis 25285
- Assay details: In vitro antibacterial activity (anaerobic bacteria), MIC
- Assay type: cell-based
- Measurement conditions: Bacteroides fragilis
Quantity measured: MIC (µg/mL)

Cc1c(N2C[C@@H](C)[C@@H](N)C2)c(F)cc2c(=O)c(C(=O)O)cn(C3CC3)c12 (relative stereo) [Ex. 28] | 0.1
Cc1c(N2C[C@@H](C)[C@H](N)C2)c(F)cc2c(=O)c(C(=O)O)cn(C3CC3)c12 (relative stereo) [Ex. 27] | 0.05
Cc1c(N2CCNCC2)c(F)cc2c(=O)c(C(=O)O)cn(C3CC3)c12 [Exp. 19] | 0.78
O=C(O)c1cn(C2CC2)c2cc(N3CCNCC3)c(F)cc2c1=O [CPFX, ciprofloxacin, reference compound] | 3.13

---

- Tested on: Shigella sonnei IID 969
Quantity measured: MIC (µg/mL)

Cc1c(N2C[C@@H](C)[C@H](N)C2)c(F)cc2c(=O)c(C(=O)O)cn(C3CC3)c12 (relative stereo) | 0.0063
Cc1c(N2CCC(N)C2)c(F)cc2c(=O)c(C(=O)O)cn(C3CC3)c12 (centres unmarked) | 0.0125
Cc1c(N2C[C@@H](C)[C@@H](N)C2)c(F)cc2c(=O)c(C(=O)O)cn(C3CC3)c12 (relative stereo) | 0.0063
Cc1c(N2CCNCC2)c(F)cc2c(=O)c(C(=O)O)cn(C3CC3)c12 | 0.025
CCn1cc(C(=O)O)c(=O)c2cc(F)c(N3CCC(N)C3)c(C)c21 (centres unmarked) | 0.05

---

- Tested on: Yersinia enterocolitica IID 981
- Assay details: microbe, parasite or virus in culture
- Assay type: cell-based
- Measurement conditions: IID981
Quantity measured: MIC (µg/mL)

Cc1c(N2C[C@@H](C)[C@@H](N)C2)c(F)cc2c(=O)c(C(=O)O)cn(C3CC3)c12 (relative stereo) | 0.0125
CCn1cc(C(=O)O)c(=O)c2cc(F)c(N3CCC(N)C3)c(C)c21 (stereo not drawn) | 0.1
O=C(O)c1cn(C2CC2)c2cc(N3CCNCC3)c(F)cc2c1=O [CPFX, ciprofloxacin, reference compound] | 0.05
Cc1c(N2CCC(N)C2)c(F)cc2c(=O)c(C(=O)O)cn(C3CC3)c12 (stereo not drawn) | 0.05
Cc1c(N2CCNCC2)c(F)cc2c(=O)c(C(=O)O)cn(C3CC3)c12 | 0.05
Cc1c(N2C[C@@H](C)[C@H](N)C2)c(F)cc2c(=O)c(C(=O)O)cn(C3CC3)c12 (relative stereo) | 0.025
